These measurements were taken from patent US5622948A.

Target: COX I (Homo sapiens, UniProt P23219)
Sequence (P23219 24-599): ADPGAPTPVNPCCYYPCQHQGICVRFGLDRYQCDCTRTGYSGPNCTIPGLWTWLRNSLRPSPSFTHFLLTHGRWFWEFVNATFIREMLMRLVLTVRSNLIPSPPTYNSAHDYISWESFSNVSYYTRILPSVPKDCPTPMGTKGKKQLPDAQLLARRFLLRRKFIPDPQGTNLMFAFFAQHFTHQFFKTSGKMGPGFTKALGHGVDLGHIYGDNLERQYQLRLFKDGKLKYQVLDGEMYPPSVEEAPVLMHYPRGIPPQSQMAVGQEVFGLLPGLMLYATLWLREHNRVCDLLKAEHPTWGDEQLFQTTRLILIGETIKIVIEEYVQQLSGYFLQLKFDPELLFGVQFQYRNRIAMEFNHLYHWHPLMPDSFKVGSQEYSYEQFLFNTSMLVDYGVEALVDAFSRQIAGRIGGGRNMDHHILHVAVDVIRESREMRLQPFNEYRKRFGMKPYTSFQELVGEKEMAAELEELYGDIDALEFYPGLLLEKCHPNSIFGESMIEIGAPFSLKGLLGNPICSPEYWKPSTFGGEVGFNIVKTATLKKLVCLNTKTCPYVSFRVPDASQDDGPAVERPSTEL
Assay: thromboxane B2 production in washed human platelets
Type: cell-based
Parameters: A 2 Kb fragment containing the coding region of COX I; made in house; host or cells: Sf9 insect cells, baculovirus (cDNA from Oxford Biomedical Research)
Settings: 30 min incubation; a) 10 min activation, A23187 (calcium ionophore); EIA; read-out: COX I IC50, inhibition of thromboxane B2 production
RECORDED_ENDPOINT: IC50 (nM)
Express it in nM; write the number only.

Problem: What IC50 appears in the records for this compound with COX I (Homo sapiens, UniProt P23219)? Cc1cc(Cc2ccc(=O)[nH]n2)n(C)c1C(=O)c1ccc(Cl)cc1
Result: 2300

====

Target: COX I (Homo sapiens, UniProt P23219)
Test: radiometric assay, COX I inhibition (human recombinant, baculovirus expressed, partially purified)
Format: biochemical
Set-up: A 2 Kb fragment containing the coding region of COX I; made in house; host or cells: Sf9 insect cells, baculovirus (cDNA from Oxford Biomedical Research)
Details: radiometric assay, human recombinant baculovirus expressed enzyme; read-out: COX I IC50 (Table 2)
This section presents compounds with their documented IC50 values.
Express it in µM; write the number only.

Below are worked cases with known answers.
Cc1cc(Cc2ccc(=O)n(Cc3c(Cl)cccc3Cl)n2)n(C)c1C(=O)c1ccc(Cl)cc1 [Compound 152]    10
CC(=O)OCn1nc(Cc2cc(C)c(C(=O)c3ccc(Cl)cc3)n2C)ccc1=O [Compound 161]    64.7
COc1ccc(C(=O)c2ccc(Cc3ccc(=O)[nH]n3)n2C)cc1 [Compound 53]    420
CC[C@H](C)NC(=O)Cn1nc(Cc2cc(C)c(C(=O)c3ccc(Cl)cc3)n2C)ccc1=O [Compound 157]    24.4
Cc1cc(Cc2ccc(=O)[nH]n2)n(C)c1C(=O)c1ccc(Br)cc1 [Compound 35]    86
Cc1cc(Cc2ccc(=O)[nH]n2)n(C)c1C(=O)c1cccs1 [Compound 144]    1
Cc1cc(Cc2ccc(=O)n(CC(N)=O)n2)n(C)c1C(=O)c1ccc(Cl)cc1 [Compound 120]    8.9

Query compound follows.
Problem: Fill in the blank: the reported IC50 of Cc1c(Cl)c(Cc2ccc(=O)[nH]n2)n(C)c1C(=O)c1ccc(Cl)cc1 [Compound 24] is ____.
Result: 440

====

Target: COX II (Homo sapiens)
Sequence (P35354 18-604): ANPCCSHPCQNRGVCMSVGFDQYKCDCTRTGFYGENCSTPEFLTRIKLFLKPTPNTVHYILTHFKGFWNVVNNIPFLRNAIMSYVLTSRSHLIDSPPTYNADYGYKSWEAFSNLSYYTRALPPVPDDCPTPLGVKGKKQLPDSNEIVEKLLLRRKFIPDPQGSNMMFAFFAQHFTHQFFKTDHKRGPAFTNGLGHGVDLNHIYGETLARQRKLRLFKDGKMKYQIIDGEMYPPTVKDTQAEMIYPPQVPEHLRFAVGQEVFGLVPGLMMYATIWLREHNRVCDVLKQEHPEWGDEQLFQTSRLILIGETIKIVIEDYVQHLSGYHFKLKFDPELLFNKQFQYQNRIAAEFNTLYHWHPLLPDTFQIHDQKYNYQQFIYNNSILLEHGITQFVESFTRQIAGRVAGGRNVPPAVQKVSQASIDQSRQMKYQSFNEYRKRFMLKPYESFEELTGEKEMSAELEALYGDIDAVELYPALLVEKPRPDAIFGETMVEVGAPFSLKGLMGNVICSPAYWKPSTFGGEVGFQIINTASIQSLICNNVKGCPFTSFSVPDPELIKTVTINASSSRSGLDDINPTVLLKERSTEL
Assay: PGE2 production in human foreskin fibroblasts stimulated with IL-1 and PMA
Assay type: cell-based
Design: A 1.8 Kb DNA fragment containing the coding region of human COX II was generated by PCR; made in house; host or cells: Sf9 insect cells, baculovirus
Details: 30 min incubation; a) 10 min activation with 5 μM A23187; EIA determination of PGE2; read-out: COX II IC50, inhibition of PGE2 production
Method: A summary of activities of Compound (16) against COX I and COX II in cell-free enzyme preparations and whole cells is presented in Table 1. The following abbreviations are used: AA is arachidonic acid, IL-1 is interleukin 1, PMA is phorbol myristate acetate, A23187 is a calcium ionophore (Sigma), BSA is bovine serum albumin and LPS is a lipopolysaccharide (Sigma). Human foreskin fibroblasts 30 min incubation with Compound (16) 16 hr admulation with IL-1 and PMA washing, transfer to fresh media […]
pIC50: −log10 of the molar value.
RECORDED_ENDPOINT: pIC50

Problem: Fill in the blank: the reported pIC50 of Cc1cc(Cc2ccc(=O)[nH]n2)n(C)c1C(=O)c1ccc(Cl)cc1 is ____.
Result: ≥ 7.00

====

Molecular target: COX I (Homo sapiens, UniProt P23219)
Assay: radiometric assay, COX I inhibition (human recombinant, baculovirus expressed, partially purified)
Format: biochemical
Parameters: A 2 Kb fragment containing the coding region of COX I; made in house; host or cells: Sf9 insect cells, baculovirus (cDNA from Oxford Biomedical Research)
Conditions: radiometric assay, human recombinant baculovirus expressed enzyme; read-out: COX I IC50 (Table 2)
RECORDED_ENDPOINT: pIC50
pIC50 is a log-scale quantity: -log10 of the concentration expressed in molar.

Cc1cc(Cc2ccc(=O)n(CCF)n2)n(C)c1C(=O)c1ccc(Cl)cc1 [Compound 123]    5.46

Problem: Fill in the blank: the reported pIC50 of CSc1cc(Cc2ccc(=O)[nH]n2)n(C)c1C(=O)c1ccc(C)cc1 [Compound 107] is ____.
Result: 4.68

Problem: Fill in the blank: the reported pIC50 of Cc1cc(Cc2ccc(=O)n(CCCO)n2)n(C)c1C(=O)c1ccc(Cl)cc1 [Compound 140] is ____.
Result: 4.32

Problem: Fill in the blank: the reported pIC50 of Cc1cc(Cc2ccc(=O)n(Cc3ccc(F)cc3)n2)n(C)c1C(=O)c1ccc(Cl)cc1 [Compound 129] is ____.
Result: 5.47

====

Biological target: COX I (Homo sapiens, UniProt P23219)
Assay: TxB2 production in human whole blood activated with ionophore (COX I)
Details: COX I IC50, inhibition of TxB2 production, 15 min incubation with compound; 30 min with A23187 (ionophore); RIA determination of TxB2
RECORDED_ENDPOINT: IC50 (µM)
Express it in µM; write the number only.

Problem: Fill in the blank: the reported IC50 of Cc1cc(Cc2ccc(=O)[nH]n2)n(C)c1C(=O)c1ccc(Cl)cc1 [Compound 16] is ____.
Result: 5.6

====

Experiment: Pharmacokinetics in rat and monkey
Assay type: in vivo
Conditions: in vivo; rats and monkeys, oral
Source text: The pharmacokinetics of Compound (16) was studied in rat and monkey after intravenous and oral administration in solution (ethanol/polyethylene glycol/water, 1/5/4) or SSV.
RECORDED_ENDPOINT: bioavailability

Problem: Fill in the blank: the reported bioavailability of Cc1cc(Cc2ccc(=O)[nH]n2)n(C)c1C(=O)c1ccc(Cl)cc1 [Compound 16] is ____.
Result: 40 to 80%

====

Molecular target: COX I (Homo sapiens)
Assay: TxB2 production in human whole blood activated with ionophore (COX I)
Settings: COX I IC50, inhibition of TxB2 production, 30 min incubation; 15 min activation, A23187; EIA determination of TxB2
RECORDED_ENDPOINT: IC50
// return the numeric value with its unit appended

Problem: Fill in the blank: the reported IC50 of Cc1cc(Cc2ccc(=O)[nH]n2)n(C)c1C(=O)c1ccc(Cl)cc1 [Compound 16] is ____.
Result: 3 µM

====

Target: COX I (Homo sapiens)
Assay: radiometric assay, COX I inhibition (human recombinant, baculovirus expressed, partially purified)
Format: biochemical
Parameters: A 2 Kb fragment containing the coding region of COX I; made in house; host or cells: Sf9 insect cells, baculovirus (cDNA from Oxford Biomedical Research)
Conditions: radiometric assay, human recombinant baculovirus expressed enzyme; read-out: COX I IC50 (Table 2)
RECORDED_ENDPOINT: pIC50
pIC50 is a log-scale quantity: -log10 of the concentration expressed in molar.

CC(=O)n1nc(Cc2cc(C)c(C(=O)c3ccc(Cl)cc3)n2C)ccc1=O    4.09
Cc1ccc(C(=O)c2ccc(CC3=NNC(=O)CC3)n2C)cc1    3.59
CCc1ccc(C(=O)c2c(C)cc(Cc3ccc(=O)[nH]n3)n2C)cc1    4.42

Problem: Fill in the blank: the reported pIC50 of Cc1cc(Cc2ccc(=O)n(Cc3ccc(Cl)cc3)n2)n(C)c1C(=O)c1ccc(Cl)cc1 is ____.
Result: 5.43

Problem: Fill in the blank: the reported pIC50 of CSc1ccc(C(=O)c2ccc(Cc3ccc(=O)[nH]n3)n2C)cc1 is ____.
Result: 4.64

====

Target: COX II (Homo sapiens)
Test: radiometric assay, COX II inhibition (human recombinant, baculovirus expressed, partially purified)
Format: biochemical
Set-up: A 1.8 Kb DNA fragment containing the coding region of human COX II was generated by PCR; made in house; host or cells: Sf9 insect cells, baculovirus
Settings: radiometric assay, human recombinant baculovirus expressed enzyme; read-out: COX II IC50 (Table 2)
This section presents compounds with their documented IC50 values.
Express it in nM; write the number only.

Below are worked cases with known answers.
Cc1cc(Cc2ccc(=O)[nH]n2)n(C)c1C(=O)c1ccc(F)cc1 [Compound 142]    4160
Cc1ccc(C(=O)c2ccc(Cc3ccc(=O)[nH]n3)n2C)cc1 [Compound 100]    1500
Cc1cc(Cc2ccc(=O)n(CCC#N)n2)n(C)c1C(=O)c1ccc(Cl)cc1 [Compound 145]    910
Cc1cc(Cc2cc(C)c(=O)[nH]n2)n(C)c1C(=O)c1ccc(Cl)cc1 [Compound 141]    125
Cc1c(Cl)c(Cc2ccc(=O)[nH]n2)n(C)c1C(=O)c1ccc(Cl)cc1 [Compound 24]    700
CC(=O)OCCn1nc(Cc2cc(C)c(C(=O)c3ccc(Cl)cc3)n2C)ccc1=O [Compound 135]    350
CSc1cc(Cc2ccc(=O)[nH]n2)n(C)c1C(=O)c1ccc(C)cc1 [Compound 107]    2300
Cc1cc(Cc2ccc(=O)n(CCO)n2)n(C)c1C(=O)c1ccc(Cl)cc1 [Compound 118]    800
Cc1cc(Cc2ccc(=O)n(CC#N)n2)n(C)c1C(=O)c1ccc(Cl)cc1 [Compound 122]    63
Cn1c(Cc2ccc(=O)[nH]n2)cc(Cl)c1C(=O)c1ccc(Cl)cc1 [Compound 81]    440

Query compound follows.
Problem: Fill in the blank: the reported IC50 of CC(=O)OCn1nc(Cc2cc(C)c(C(=O)c3ccc(Cl)cc3)n2C)ccc1=O [Compound 161] is ____.
Result: 610
